Cited source for all entries: patent US5084563A

Assay: physchem
Format: physicochemical
Settings: aqueous solution, pH 2
Attribute: remaining at 1 h, 70 µM
Write the answer as a number in %, unit excluded.

O=C1O[C@H]([C@@H](O)CO)C(O)=C1O[C@H]1O[C@H](CO)[C@@H](O)[C@H](O)[C@H]1O | 100
O=C1O[C@H]([C@@H](O)CO[C@H]2O[C@H](CO)[C@@H](O)[C@H](O)[C@H]2O)C(O)=C1O | 99

Please look at the following compound next.
Query: remaining at 1 h, 70 µM; subject: `O=C1O[C@H]([C@@H](O)CO)C(O)=C1O` 98

----------
Experiment: physchem
Assay type: physicochemical
Settings: aqueous solution, pH 7
QUANTITY NAME: remaining at 1 h, 70 µM (%)
Write the answer as a number in %, unit excluded.

Guide cases for remaining at 1 h, 70 µM, answers given:
O=C1O[C@H]([C@@H](O)CO[C@H]2O[C@H](CO)[C@@H](O)[C@H](O)[C@H]2O)C(O)=C1O | 88
O=C1O[C@H]([C@@H](O)CO)C(O)=C1O[C@H]1O[C@H](CO)[C@@H](O)[C@H](O)[C@H]1O | 100

Please look at the following molecule next.
Query: remaining at 1 h, 70 µM; subject: `O=C1O[C@H]([C@@H](O)CO)C(O)=C1O` 80

----------
Attribute: remaining at 2 h, 70 µM
Test: physchem
Format: physicochemical
Settings: aqueous solution, pH 7
Write the answer as a number in %, unit excluded.

Guide cases for remaining at 2 h, 70 µM, answers given:
O=C1O[C@H]([C@@H](O)CO)C(O)=C1O[C@H]1O[C@H](CO)[C@@H](O)[C@H](O)[C@H]1O | 100
O=C1O[C@H]([C@@H](O)CO)C(O)=C1O | 61

Query: remaining at 2 h, 70 µM; subject: `O=C1O[C@H]([C@@H](O)CO[C@H]2O[C@H](CO)[C@@H](O)[C@H](O)[C@H]2O)C(O)=C1O` 72

----------
Attribute: remaining at 18 h, 70 µM
Assay: physchem
Assay type: physicochemical
Settings: aqueous solution, pH 7
Write the answer as a number in %, unit excluded.

O=C1O[C@H]([C@@H](O)CO)C(O)=C1O[C@H]1O[C@H](CO)[C@@H](O)[C@H](O)[C@H]1O | 100
O=C1O[C@H]([C@@H](O)CO[C@H]2O[C@H](CO)[C@@H](O)[C@H](O)[C@H]2O)C(O)=C1O | 7

Query: remaining at 18 h, 70 µM; subject: `O=C1O[C@H]([C@@H](O)CO)C(O)=C1O` 1

----------
Assay: physchem
Assay type: physicochemical
Conditions: aqueous solution, pH 2
Attribute: remaining at 18 h, 70 µM
Write the answer as a number in %, unit excluded.

Guide cases for remaining at 18 h, 70 µM, answers given:
O=C1O[C@H]([C@@H](O)CO)C(O)=C1O [AsA, L-ascorbic acid] | 12
O=C1O[C@H]([C@@H](O)CO)C(O)=C1O[C@H]1O[C@H](CO)[C@@H](O)[C@H](O)[C@H]1O [2-O-α-D-glucopyranosyl-L-ascorbic acid] | 100

Query: remaining at 18 h, 70 µM; subject: O=C1O[C@H]([C@@H](O)CO[C@H]2O[C@H](CO)[C@@H](O)[C@H](O)[C@H]2O)C(O)=C1O [6GAsA, 6-O-α-D-glucosyl-L-ascorbic acid] 25
